Biological target: Retinaldehyde dehydrogenase 3 (Homo sapiens) (UniProt P47895)
Experiment: qHTS for Inhibitors of the Aldehyde Dehydrogenase Family (ALDH1A3) Primary screen (AID 2061315)
Settings: ALDH inhibition qHTS; series mostly up to 56 µM
Results filed as inconclusive are left out. Activity calls are given as the source filed them. Calls follow the shape of the dose curve; as a rule, active = well fitted inhibition curve with a large enough effect; inconclusive = small, poorly fitted or top-dose-only effect; inactive = no such curve, though single readings can be large or run the other way.
Reported Metric: activity change, negative = inhibition

These recorded examples may help you get a feel for the data.
[
  {
    "Molecule": "Oc1cccc(C2NC(=S)Nc3cccc(F)c32)c1 (configuration not stated)",
    "Reported Metric": "activity change, negative = inhibition",
    "Experimental Result": "inactive"
  },
  {
    "Molecule": "Cc1ccc(-c2ccc(=O)n(CC(=O)NCCCN(C)C)n2)cc1",
    "Reported Metric": "activity change, negative = inhibition",
    "Experimental Result": "inactive"
  },
  {
    "Molecule": "CCNC(=O)c1ccc(-c2ccc3ncnc(NCC(C)(C)C)c3c2)o1",
    "Reported Metric": "activity change, negative = inhibition",
    "Experimental Result": "inactive"
  },
  {
    "Molecule": "Cc1ccc2nc3sc(C(=O)N4CCOCC4)cc3cc2c1",
    "Reported Metric": "activity change, negative = inhibition",
    "Experimental Result": "inactive"
  },
  {
    "Molecule": "COc1ccc(N2CCN(S(=O)(=O)c3ccc4c(c3)CC(=O)N4)CC2)cc1",
    "Reported Metric": "activity change, negative = inhibition",
    "Experimental Result": "inactive"
  },
  {
    "Molecule": "N#Cc1c(-c2cccs2)no[n+]1[O-]",
    "Reported Metric": "activity change, negative = inhibition",
    "Experimental Result": "inactive"
  }
]

Req: I am curious: what activity change, negative = inhibition value has been reported for CN(CCC1CCCO1)c1ncnc2ccc(-c3ccc4c(c3)OCO4)cc12 (configuration not stated) ?
Resp: inactive

Req: One more molecule: COc1ccc(-c2ccc3ncc4c(c3c2)n(-c2ccc(N3CCNCC3)c(C(F)(F)F)c2)c(=O)n4C)cn1
Resp: inactive

Req: One more molecule: Cc1cc(NS(=O)(=O)c2ccc(NS(=O)(=O)Cc3ccc(Cl)c(Cl)c3)cc2)no1
Resp: inactive

Req: One more molecule: Cc1ccnc(NC(=S)N[C@@H]2CCN(c3cccc(C(F)(F)F)c3)C2)c1
Resp: inactive

Req: One more molecule: O=C(Nc1nnc(-c2ccncc2)s1)Nc1cc(C(F)(F)F)ccc1F
Resp: inactive

Req: One more molecule: CC(C)(C(=O)NCC(F)(F)C(F)(F)F)C(=O)NC1C(=O)Nc2ccccc2-c2ccccc21 (configuration not stated)
Resp: inactive

Every entry's value here was drawn from PubChem BioAssay (NCATS).
